Below, each entry is listed with its recorded pKi.
- target-entity: Epidermal growth factor receptor (Homo sapiens, UniProt P00533)
- Sequence (P00533 whole entry): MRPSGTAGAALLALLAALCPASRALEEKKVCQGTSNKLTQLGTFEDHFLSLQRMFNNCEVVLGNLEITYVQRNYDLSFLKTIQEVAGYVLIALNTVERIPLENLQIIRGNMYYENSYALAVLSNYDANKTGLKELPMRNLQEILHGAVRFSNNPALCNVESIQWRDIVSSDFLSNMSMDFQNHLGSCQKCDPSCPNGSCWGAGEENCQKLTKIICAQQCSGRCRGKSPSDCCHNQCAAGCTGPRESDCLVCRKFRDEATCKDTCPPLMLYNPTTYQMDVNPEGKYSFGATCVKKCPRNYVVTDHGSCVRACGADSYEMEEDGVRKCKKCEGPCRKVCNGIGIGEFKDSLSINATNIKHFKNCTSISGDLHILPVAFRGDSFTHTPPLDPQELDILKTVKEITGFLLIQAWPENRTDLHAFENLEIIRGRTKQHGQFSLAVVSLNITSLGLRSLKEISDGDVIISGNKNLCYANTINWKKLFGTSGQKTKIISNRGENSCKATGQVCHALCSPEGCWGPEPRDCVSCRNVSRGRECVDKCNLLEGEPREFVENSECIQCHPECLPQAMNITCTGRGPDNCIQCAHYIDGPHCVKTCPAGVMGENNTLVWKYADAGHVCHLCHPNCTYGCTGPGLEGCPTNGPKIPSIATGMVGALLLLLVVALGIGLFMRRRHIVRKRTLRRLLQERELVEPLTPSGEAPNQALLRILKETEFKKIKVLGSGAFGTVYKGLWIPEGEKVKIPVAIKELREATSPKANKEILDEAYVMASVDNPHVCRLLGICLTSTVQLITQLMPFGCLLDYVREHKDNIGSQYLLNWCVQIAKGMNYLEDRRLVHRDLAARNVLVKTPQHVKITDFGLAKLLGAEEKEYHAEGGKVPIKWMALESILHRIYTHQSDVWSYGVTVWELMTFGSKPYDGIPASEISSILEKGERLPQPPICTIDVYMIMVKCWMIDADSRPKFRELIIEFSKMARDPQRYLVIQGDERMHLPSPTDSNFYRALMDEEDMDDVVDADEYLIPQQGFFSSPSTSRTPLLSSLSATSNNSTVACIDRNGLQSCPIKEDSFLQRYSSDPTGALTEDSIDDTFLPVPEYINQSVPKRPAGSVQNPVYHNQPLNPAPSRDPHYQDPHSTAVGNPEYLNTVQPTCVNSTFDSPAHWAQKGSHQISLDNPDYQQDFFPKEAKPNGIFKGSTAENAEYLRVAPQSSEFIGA
- assay-text: Inhibition of human recombinant EGFR by fluorescence polarization assay
Quick note: pKi values are minus log10 of concentrations in mol/L.

As a guide, the following entries are already answered.
>>> df
                         structure_notation  number
0  COCCOc1cc2ncc(C#N)c(N[C@@H]3C[C@H]3c3ccccc3)c2cc1OC    7.22
1  COc1cc2ncc(C#N)c(N[C@@H]3C[C@H]3c3ccccc3)c2cc1OC    7.62

Query (molecule): N#Cc1cnc2ccc(-c3ccc(CN4CCOCC4)cc3)cc2c1N[C@@H]1C[C@H]1c1ccccc1 ; field requested: pKi
6.40
